measuredTarget: 5-lipoxygenase (Human Leukocyte/PMNL 5-LPO) (Homo sapiens)
Construct: Human neutrophils and platelets were obtained from the blood of normal volunteers; endogenous in cells; host or cells: human blood leukocytes (neutrophils) of normal volunteers, with 0.1 to 0.5 platelets per leukocyte
procedureText: Inhibition of 5-lipoxygenase (5-HETE formation) in human neutrophil/platelet system
Type: cell-based
assayConditions: text comparison with prior-art compound; read-out: IC50 in the 5-lipoxygenase inhibition test
assayReadout: IC50 (µM)
Express it in µM; write the number only.

For the compound O=C(CCCCCCc1ccccc1)NO [Compound 2a] , the measured IC50 on 5-lipoxygenase (Human Leukocyte/PMNL 5-LPO) (Homo sapiens) was 20.9

* * *

measuredTarget: Human Platelet 12-LPO (Homo sapiens, UniProt P18054)
Construct: Human neutrophils and platelets were obtained from the blood of normal volunteers; endogenous in cells; host or cells: human platelets from blood of normal volunteers
Sequence (P18054 whole entry): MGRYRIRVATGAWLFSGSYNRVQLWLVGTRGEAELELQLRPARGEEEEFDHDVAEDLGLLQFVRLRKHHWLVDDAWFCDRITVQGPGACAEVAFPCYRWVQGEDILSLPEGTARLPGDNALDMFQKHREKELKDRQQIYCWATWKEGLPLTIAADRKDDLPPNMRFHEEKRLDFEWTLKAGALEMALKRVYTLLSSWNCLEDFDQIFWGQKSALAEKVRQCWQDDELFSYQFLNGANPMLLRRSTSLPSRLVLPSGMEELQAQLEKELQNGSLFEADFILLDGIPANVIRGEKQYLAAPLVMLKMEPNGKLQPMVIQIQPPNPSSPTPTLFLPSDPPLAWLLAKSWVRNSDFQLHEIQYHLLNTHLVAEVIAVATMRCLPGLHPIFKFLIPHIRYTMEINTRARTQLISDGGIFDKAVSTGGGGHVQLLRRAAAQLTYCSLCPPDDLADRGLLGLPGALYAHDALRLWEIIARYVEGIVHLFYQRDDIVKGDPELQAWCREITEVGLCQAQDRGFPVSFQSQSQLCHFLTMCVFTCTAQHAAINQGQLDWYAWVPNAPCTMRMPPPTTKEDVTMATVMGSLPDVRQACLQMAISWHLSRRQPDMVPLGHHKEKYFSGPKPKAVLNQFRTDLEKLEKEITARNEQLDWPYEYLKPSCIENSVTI
procedureText: Inhibition of 12-LPO, human platelet
Assay type: cell-based
assayConditions: @ 100 μM; read-out: % I Human Platelet 12-LPO
assayReadout: inhibition at 100 µM (%)
# number only, unit % dropped from output

# example entries with known answers
>>> observedresult("O=C(CCCCCCCc1ccccc1)NO")
53
>>> observedresult("CC(C)N(O)C(=O)CCCCCCCCCCCCCCc1ccccc1")
10
>>> observedresult("CN(O)C(=O)CCCCCCCCCCCCCCc1ccccc1")
17

"CC(C)N(O)C(=O)CCCCc1ccccc1" tested on Human Platelet 12-LPO (Homo sapiens, UniProt P18054) gave inhibition at 100 µM: 59

Field inhibition at 100 µM (Human Platelet 12-LPO (Homo sapiens, UniProt P18054)), entry "CC(C)N(O)C(=O)CCCc1ccccc1" : 31

Human Platelet 12-LPO (Homo sapiens, UniProt P18054) inhibition at 100 µM of "O=C(CCCCCCCCCc1ccccc1)NO" is 10

O=C(CCCCCCCCc1ccccc1)NO [Compound 1, 9-Phenylnonanohydroxamic Acid] tested on Human Platelet 12-LPO (Homo sapiens, UniProt P18054) gave inhibition at 100 µM: 33

* * *

measuredTarget: 5-lipoxygenase (Human Leukocyte/PMNL 5-LPO) (Homo sapiens)
Construct: Human neutrophils and platelets were obtained from the blood of normal volunteers; endogenous in cells; host or cells: human blood leukocytes (neutrophils) of normal volunteers, with 0.1 to 0.5 platelets per leukocyte
procedureText: Inhibition of 5-lipoxygenase (5-HETE formation) in human neutrophil/platelet system
Type: cell-based
assayConditions: Table I; R=H, phenylalkyl hydroxamic acids; read-out: IC50 5-LPO (Inhibition of Human Leukocyte 5-LPO)
assayReadout: IC50 (µM)
Supply the numeric figure in µM, leaving out any unit text.

>>> observedresult("O=C(CCCCCCCCCCc1ccccc1)NO [Compound 2d]")
11

Reported IC50 ( O=C(CCCCCCCCCCCc1ccccc1)NO [Compound 2e] ) = 10.3

* * *

Form field: IC50 (one value per entry).
measuredTarget: 5-lipoxygenase (Human Leukocyte/PMNL 5-LPO) (Homo sapiens, UniProt P09917)
Construct: Human neutrophils and platelets were obtained from the blood of normal volunteers; endogenous in cells; host or cells: human blood leukocytes (neutrophils) of normal volunteers, with 0.1 to 0.5 platelets per leukocyte
procedureText: Inhibition of 5-lipoxygenase (5-HETE formation) in human neutrophil/platelet system
Format: cell-based
assayConditions: Table I; R=H, phenylalkyl hydroxamic acids; read-out: IC50 5-LPO (Inhibition of Human Leukocyte 5-LPO)

Past entries and their recorded results:
>>> observedresult("O=C(CCc1ccccc1)NO [n=2, reference compound]")
"> 100 µM"
>>> observedresult("O=C(CCCCCCCCCCCCCCc1ccccc1)NO [BMY30152]")
"> 100 µM"
>>> observedresult("O=C(CCCCc1ccccc1)NO [BMY30083]")
"> 100 µM"
>>> observedresult("O=C(CCCCCCCCCCCCc1ccccc1)NO [n=12, reference compound]")
"> 50 µM"
>>> observedresult("O=C(Cc1ccccc1)NO [n=1, reference compound]")
"> 100 µM"

Next molecule, please.
Measured IC50, O=C(CCCc1ccccc1)NO [BMY30077] : > 100 µM

* * *

measuredTarget: 5-lipoxygenase (Human Leukocyte/PMNL 5-LPO) (Homo sapiens)
Construct: Human neutrophils and platelets were obtained from the blood of normal volunteers; endogenous in cells; host or cells: human blood leukocytes (neutrophils) of normal volunteers, with 0.1 to 0.5 platelets per leukocyte
procedureText: Inhibition of 5-lipoxygenase (5-HETE formation) in human neutrophil/platelet system
Format: cell-based
assayConditions: FIG. 1 table; 95% confidence interval; read-out: IC50 Human PMNL 5-LPO
assayReadout: pIC50
The value called pIC50 is obtained by taking minus log10 of the concentration in mol/L.

// known answers, use as guide
>>> observedresult("CC(C)N(O)C(=O)CCCCCCc1ccccc1")
7.15
>>> observedresult("CC(C)N(O)C(=O)CCCCCCCCc1ccccc1")
6.74

Turning to the following compound.
pIC50 for "CC(C)N(O)C(=O)CCCCCCCc1ccccc1" is 6.80

* * *

measuredTarget: Human Platelet CO (Homo sapiens)
Construct: Human neutrophils and platelets were obtained from the blood of normal volunteers; endogenous in cells
Sequence (P23219 24-599): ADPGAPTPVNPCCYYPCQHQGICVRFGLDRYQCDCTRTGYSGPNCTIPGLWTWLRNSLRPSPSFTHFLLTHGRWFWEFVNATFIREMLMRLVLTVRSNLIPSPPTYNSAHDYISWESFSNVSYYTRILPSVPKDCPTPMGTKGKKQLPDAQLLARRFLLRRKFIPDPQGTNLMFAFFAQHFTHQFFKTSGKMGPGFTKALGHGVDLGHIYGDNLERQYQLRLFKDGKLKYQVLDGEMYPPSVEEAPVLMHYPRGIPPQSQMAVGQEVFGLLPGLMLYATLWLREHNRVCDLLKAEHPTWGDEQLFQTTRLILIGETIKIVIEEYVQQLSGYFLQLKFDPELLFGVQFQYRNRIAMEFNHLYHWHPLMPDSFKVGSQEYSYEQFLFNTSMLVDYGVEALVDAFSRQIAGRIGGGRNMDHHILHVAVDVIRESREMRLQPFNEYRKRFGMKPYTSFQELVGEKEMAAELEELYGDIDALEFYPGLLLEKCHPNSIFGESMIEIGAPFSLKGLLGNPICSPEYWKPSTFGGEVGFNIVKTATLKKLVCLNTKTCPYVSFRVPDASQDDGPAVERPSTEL
procedureText: Inhibition of CO, human platelet
assayConditions: 95% confidence interval given for some
assayReadout: IC50
# do not omit the unit; it follows the number

>>> observedresult("CC(C)N(O)C(=O)CCCCCCCCc1ccccc1 [BMY30224]")
"18.4 µM"
>>> observedresult("CN(O)C(=O)CCCCCCCCCc1ccccc1 [BMY30217]")
"4.6 µM"
>>> observedresult("CC(C)N(O)C(=O)CCCCCCc1ccccc1 [BMY30222]")
"30.9 µM"

Sample CC(C)N(O)C(=O)CCCCCCCCCc1ccccc1 [BMY30218] ; IC50 observed: 7.6 µM

Lab book: IC50 of O=C(CCCCCCCCc1ccccc1)NO [Compound 1, 9-Phenylnonanohydroxamic Acid] noted as 15 µM

* * *

measuredTarget: 5-lipoxygenase (Human Leukocyte/PMNL 5-LPO) (Homo sapiens, UniProt P09917)
Construct: Human neutrophils and platelets were obtained from the blood of normal volunteers; endogenous in cells; host or cells: human blood leukocytes (neutrophils) of normal volunteers, with 0.1 to 0.5 platelets per leukocyte
Sequence (P09917 1-674): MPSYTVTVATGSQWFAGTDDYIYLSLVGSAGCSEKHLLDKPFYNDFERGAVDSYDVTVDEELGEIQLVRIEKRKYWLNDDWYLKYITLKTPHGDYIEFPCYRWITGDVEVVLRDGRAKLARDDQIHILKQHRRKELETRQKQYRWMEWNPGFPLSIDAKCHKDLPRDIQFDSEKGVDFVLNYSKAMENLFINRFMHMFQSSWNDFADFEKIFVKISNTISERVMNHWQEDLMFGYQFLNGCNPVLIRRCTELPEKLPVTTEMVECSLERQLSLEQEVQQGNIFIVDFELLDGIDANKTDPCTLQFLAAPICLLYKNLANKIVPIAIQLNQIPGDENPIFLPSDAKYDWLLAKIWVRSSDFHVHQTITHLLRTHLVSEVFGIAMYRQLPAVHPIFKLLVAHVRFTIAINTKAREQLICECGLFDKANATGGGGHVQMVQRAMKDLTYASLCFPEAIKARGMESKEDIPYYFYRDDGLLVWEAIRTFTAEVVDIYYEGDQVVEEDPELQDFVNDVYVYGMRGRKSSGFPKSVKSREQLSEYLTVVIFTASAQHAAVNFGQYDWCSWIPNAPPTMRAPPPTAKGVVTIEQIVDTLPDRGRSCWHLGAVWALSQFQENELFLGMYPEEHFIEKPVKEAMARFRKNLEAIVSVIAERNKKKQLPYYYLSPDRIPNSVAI
procedureText: Inhibition of 5-lipoxygenase (5-HETE formation) in human neutrophil/platelet system
Format: cell-based
assayConditions: FIG. 1 table; 95% confidence interval; read-out: IC50 Human PMNL 5-LPO
Here, each record is paired with measured IC50 data.
Unit µM implied. Number only.

>>> observedresult("CC(C)N(O)C(=O)CCCCc1ccccc1")
0.9

Value sought: IC50, system 5-lipoxygenase (Human Leukocyte/PMNL 5-LPO) (Homo sapiens, UniProt P09917), item "CN(O)C(=O)CCCCCCCCCc1ccccc1" . Result: 0.09

Known value: 5-lipoxygenase (Human Leukocyte/PMNL 5-LPO) (Homo sapiens, UniProt P09917) IC50 of the compound "CN(O)C(=O)CCCCCCCCCCCCCCc1ccccc1" equals 25.3

Here "CC(C)N(O)C(=O)CCCCCCCCCc1ccccc1" was tested on 5-lipoxygenase (Human Leukocyte/PMNL 5-LPO) (Homo sapiens, UniProt P09917), and its IC50 came to 0.14

5-lipoxygenase (Human Leukocyte/PMNL 5-LPO) (Homo sapiens, UniProt P09917) data for "CC(C)N(O)C(=O)CCCCCCCCCCCCCCc1ccccc1" ; its IC50: 80

* * *

IC50 values by entry
measuredTarget: Human Platelet 12-LPO (Homo sapiens)
Construct: Human neutrophils and platelets were obtained from the blood of normal volunteers; endogenous in cells
procedureText: Inhibition of 12-LPO, human platelet
assayConditions: 95% confidence interval
Report the value in µM with no unit label.

Examples with answers:
>>> observedresult("CN(O)C(=O)CCCCCCCCc1ccccc1 [BMY30223]")
2.5
>>> observedresult("CC(C)N(O)C(=O)CCCCCCCc1ccccc1 [BMY30214]")
4.5
>>> observedresult("CC(C)N(O)C(=O)CCCCCCc1ccccc1 [BMY30222]")
12.5

Lab note: measured IC50 of CN(O)C(=O)CCCCCCCc1ccccc1 [BMY30208, N-methyl-8-phenyloctanohydroxamic acid] was 3.6
